target under test: PBP2 (Neisseria gonorrhoeae, UniProt P08149, A510V/A516G/A574V/F504L/H541N/I556V/I566V/K555Q/P552V)
Construct: endogenous in cells; host or cells: N. gonorrhoeae ATCC 49226, isolated membrane preparation
assay method text: biochemical
Type: binding, Neisseria gonorrhoeae ATCC 49226
assay conditions: IC50 PBP2 (Table S1), strain ATCC 49226
IC50 by entry:

{"columns": ["molecule", "IC50"],
 "data": [
  ["O=C(NC1CCNCC1)[C@@H]1CC[C@@H]2CN1C(=O)N2OS(=O)(=O)O", "> 1470 µM"],
  ["NC(=O)[C@@H]1CC[C@@H]2CN1C(=O)N2OS(=O)(=O)O", "> 1930 µM"],
  ["C[C@@H](O)[C@H]1C(=O)N2C(C(=O)O)=C(S[C@@H]3CN[C@H](CNS(N)(=O)=O)C3)[C@H](C)[C@H]12", "0.214 µM"],
  ["CC1(C)S[C@@H]2[C@H](NC(=O)C(C(=O)O)c3ccccc3)C(=O)N2[C@H]1C(=O)O (stereo partly shown)", "> 5.29 µM"]
]}

====

pIC50 by entry:
target under test: PBP2 (Neisseria gonorrhoeae, UniProt P08149, H541N)
Construct: endogenous in cells; host or cells: N. gonorrhoeae ATCC 19424, isolated membrane preparation
assay method text: PBP-binding assay (Bocillin FL) in isolated membrane preparations
Set-up: species or system Neisseria gonorrhoeae ATCC 19424
assay conditions: IC50 PBP2 (Table S1), strain ATCC 19424
pIC50: −log10 of the molar value.

{"columns": ["compound", "target under test", "pIC50"],
 "data": [
  ["NC(=O)[C@@H]1CC[C@@H]2CN1C(=O)N2OS(=O)(=O)O [AVI, avibactam]", "PBP2 (Neisseria gonorrhoeae, UniProt P08149, H541N)", 3.35],
  ["O=C(NC1CCNCC1)[C@@H]1CC[C@@H]2CN1C(=O)N2OS(=O)(=O)O [REL, relebactam]", "PBP2 (Neisseria gonorrhoeae, UniProt P08149, H541N)", 2.83],
  ["C[C@@H](O)[C@H]1C(=O)N2C(C(=O)O)=C(S[C@@H]3CN[C@H](C(=O)N(C)C)C3)[C@H](C)[C@H]12 [MEM, meropenem]", "PBP2 (Neisseria gonorrhoeae, UniProt P08149, H541N)", 6.98]
]}

====

MIC by entry:
Tested on: N. gonorrhoeae ATCC 19424
assay method text: MIC, CLSI broth microdilution
Format: cell-based
assay conditions: Neisseria gonorrhoeae, ATCC19424; strain ATCC 19424; read-out: MIC

{"columns": ["compound", "scale unit", "MIC"],
 "data": [
  ["CO/N=C(\\C(=O)N[C@@H]1C(=O)N2C(C(=O)O)=C(CSc3nc(=O)c(=O)[nH]n3C)CS[C@H]12)c1csc(N)n1", "µg/mL", 0.004],
  ["CCN1CCN(C(=O)N[C@@H](C(=O)N[C@@H]2C(=O)N3[C@@H]2SC(C)(C)[C@@H]3C(=O)O)c2ccccc2)C(=O)C1=O", "µg/mL", 0.001],
  ["CC1(C)S[C@@H]2[C@H](NC(=O)Cc3ccccc3)C(=O)N2[C@H]1C(=O)O", "µg/mL", 0.064],
  ["CO/N=C(\\C(=O)N[C@@H]1C(=O)N2C(C(=O)[O-])=C(C[N+]3(C)CCCC3)CS[C@H]12)c1csc(N)n1 [FEP, cefepime]", "µg/mL", 0.008],
  ["C[C@]1(Cn2ccnn2)[C@H](C(=O)O)N2C(=O)C[C@H]2S1(=O)=O", "µg/mL", 0.125],
  ["CC1(C)S[C@@H]2[C@H](/N=C/N3CCCCCC3)C(=O)N2[C@H]1C(=O)O", "µg/mL", 1],
  ["CC1(C)S[C@@H]2[C@H](NC(=O)[C@H](C(=O)O)c3ccsc3)C(=O)N2[C@H]1C(=O)O", "µg/mL", 0.016]
]}

====

log10 IC50 by entry:
target under test: PBP1, PBP2 and PBP3 (Neisseria gonorrhoeae, UniProt P08149, A510V/A516G/A574V/F504L/H541N/I556V/I566V/K555Q/P552V)
assay conditions: read-out: min. IC50 (minimum observed IC50 value); strain ATCC 49226
recorded metric: log10 IC50 (log10 of the value in nM)

{"columns": ["smiles repr", "recorded metric", "measured"],
 "data": [
  ["Cn1c(N)c(NC(=O)NCCN)c[n+]1CC1=C(C(=O)O)N2C(=O)[C@@H](NC(=O)/C(=N\\OC(C)(C)C(=O)[O-])c3nsc(N)n3)[C@H]2SC1", "log10 IC50", 2.61],
  ["C=CC1=C(C(=O)O)N2C(=O)[C@@H](NC(=O)/C(=N\\OCC(=O)O)c3csc(N)n3)[C@H]2SC1", "log10 IC50", 1.64],
  ["CC(C)(O/N=C(\\C(=O)N[C@@H]1C(=O)N2C(C(=O)[O-])=C(C[n+]3ccccc3)CS[C@H]12)c1csc(N)n1)C(=O)O", "log10 IC50", 1.26],
  ["CCN1CCN(C(=O)N[C@@H](C(=O)N[C@@H]2C(=O)N3[C@@H]2SC(C)(C)[C@@H]3C(=O)O)c2ccccc2)C(=O)C1=O", "log10 IC50", 1.29],
  ["CO/N=C(\\C(=O)N[C@@H]1C(=O)N2C(C(=O)O)=C(COC(C)=O)CS[C@H]12)c1csc(N)n1", "log10 IC50", 1.34],
  ["C[C@]1(Cn2ccnn2)[C@H](C(=O)O)N2C(=O)C[C@H]2S1(=O)=O", "log10 IC50", 3.68],
  ["CCO/N=C(\\C(=O)N[C@@H]1C(=O)N2C(C(=O)[O-])=C(Sc3nc(-c4cc[n+](C)cc4)cs3)CS[C@H]12)c1nsc(N)n1", "log10 IC50", 2.54]
]}

====

target under test: PBP1 (Neisseria gonorrhoeae, UniProt O05131, A375T/F666S)
Construct: endogenous in cells; host or cells: N. gonorrhoeae ATCC 49226, isolated membrane preparation
assay method text: PBP-binding assay (Bocillin FL) in isolated membrane preparations
Set-up: species or system Neisseria gonorrhoeae ATCC 49226
assay conditions: IC50 PBP1 (Table S1), strain ATCC 49226
pIC50: −log10 of the molar value.
pIC50 by entry:

{"columns": ["compound", "relation", "pIC50"],
 "data": [
  ["NC(=O)[C@@H]1CC[C@@H]2CN1C(=O)N2OS(=O)(=O)O", "<", 2.71],
  ["CC1(C)S[C@@H]2[C@H](NC(=O)C(C(=O)O)c3ccccc3)C(=O)N2[C@H]1C(=O)O (some centres unmarked)", "<", 5.28],
  ["O=C(NC1CCNCC1)[C@@H]1CC[C@@H]2CN1C(=O)N2OS(=O)(=O)O", "<", 2.83],
  ["CC1(C)[C@H](C(=O)O)N2C(=O)C[C@H]2S1(=O)=O", "=", 3.06],
  ["C[C@]1(Cn2ccnn2)[C@H](C(=O)O)N2C(=O)C[C@H]2S1(=O)=O", "=", 4.08]
]}

====

target under test: PBP1, PBP2 and PBP3 (Neisseria gonorrhoeae, UniProt P08149, H541N)
assay conditions: read-out: min. IC50 (minimum observed IC50 value); strain ATCC 19424

{"columns": ["smiles repr", "target under test", "IC50"],
 "data": [
  ["CC1(C)S[C@@H]2[C@H](/N=C/N3CCCCCC3)C(=O)N2[C@H]1C(=O)O", "PBP1, PBP2 and PBP3 (Neisseria gonorrhoeae, UniProt P08149, H541N)", "4090 nM"],
  ["CCN1CCN(C(=O)N[C@@H](C(=O)N[C@@H]2C(=O)N3[C@@H]2SC(C)(C)[C@@H]3C(=O)O)c2ccccc2)C(=O)C1=O", "PBP1, PBP2 and PBP3 (Neisseria gonorrhoeae, UniProt P08149, H541N)", "38.6 nM"],
  ["CC1(C)[C@H](C(=O)O)N2C(=O)C[C@H]2S1(=O)=O", "PBP1, PBP2 and PBP3 (Neisseria gonorrhoeae, UniProt P08149, H541N)", "5060 nM"],
  ["CC1(C)S[C@@H]2[C@H](NC(=O)[C@H](C(=O)O)c3ccsc3)C(=O)N2[C@H]1C(=O)O", "PBP1, PBP2 and PBP3 (Neisseria gonorrhoeae, UniProt P08149, H541N)", "494 nM"]
]}

====

Tested on: N. gonorrhoeae ATCC 49226
assay method text: MIC, CLSI broth microdilution
Type: cell-based, Neisseria gonorrhoeae
assay conditions: Neisseria gonorrhoeae, ATCC49226; strain ATCC 49226; read-out: MIC
recorded metric: log10 MIC (log10 of the value in µg/mL)

{"columns": ["compound", "log10 MIC"],
 "data": [
  ["CO/N=C(\\C(=O)N[C@@H]1C(=O)N2C(C(=O)O)=C(COC(C)=O)CS[C@H]12)c1csc(N)n1", -2.10],
  ["C[C@@H](O)[C@H]1C(=O)N2C(C(=O)O)=C(S[C@@H]3CN[C@H](C(=O)Nc4cccc(C(=O)O)c4)C3)[C@H](C)[C@H]12", -2.10],
  ["CO/N=C(\\C(=O)N[C@@H]1C(=O)N2C(C(=O)O)=C(CSc3nc(=O)c(=O)[nH]n3C)CS[C@H]12)c1csc(N)n1", -2.70],
  ["Cn1c(N)c(NC(=O)NCCN)c[n+]1CC1=C(C(=O)O)N2C(=O)[C@@H](NC(=O)/C(=N\\OC(C)(C)C(=O)[O-])c3nsc(N)n3)[C@H]2SC1", -0.60],
  ["C[C@]1(Cn2ccnn2)[C@H](C(=O)O)N2C(=O)C[C@H]2S1(=O)=O", 0.00],
  ["CC1(C)S[C@@H]2[C@H](NC(=O)Cc3ccccc3)C(=O)N2[C@H]1C(=O)O", -0.90],
  ["CC1(C)S[C@@H]2[C@H](NC(=O)[C@H](C(=O)O)c3ccsc3)C(=O)N2[C@H]1C(=O)O", -0.30],
  ["C=CC1=C(C(=O)O)N2C(=O)[C@@H](NC(=O)/C(=N\\OCC(=O)O)c3csc(N)n3)[C@H]2SC1", -1.80],
  ["CC(C)(O/N=C(\\C(=O)N[C@@H]1C(=O)N2C(C(=O)[O-])=C(C[n+]3ccccc3)CS[C@H]12)c1csc(N)n1)C(=O)O", -1.49],
  ["CC1(C)S[C@@H]2[C@H](NC(=O)C(C(=O)O)c3ccccc3)C(=O)N2[C@H]1C(=O)O (stereo partly shown)", -0.30]
]}
